Biological target: Inhibitor of nuclear factor kappa-B kinase subunit beta (Homo sapiens)
Sequence (O14920 whole entry): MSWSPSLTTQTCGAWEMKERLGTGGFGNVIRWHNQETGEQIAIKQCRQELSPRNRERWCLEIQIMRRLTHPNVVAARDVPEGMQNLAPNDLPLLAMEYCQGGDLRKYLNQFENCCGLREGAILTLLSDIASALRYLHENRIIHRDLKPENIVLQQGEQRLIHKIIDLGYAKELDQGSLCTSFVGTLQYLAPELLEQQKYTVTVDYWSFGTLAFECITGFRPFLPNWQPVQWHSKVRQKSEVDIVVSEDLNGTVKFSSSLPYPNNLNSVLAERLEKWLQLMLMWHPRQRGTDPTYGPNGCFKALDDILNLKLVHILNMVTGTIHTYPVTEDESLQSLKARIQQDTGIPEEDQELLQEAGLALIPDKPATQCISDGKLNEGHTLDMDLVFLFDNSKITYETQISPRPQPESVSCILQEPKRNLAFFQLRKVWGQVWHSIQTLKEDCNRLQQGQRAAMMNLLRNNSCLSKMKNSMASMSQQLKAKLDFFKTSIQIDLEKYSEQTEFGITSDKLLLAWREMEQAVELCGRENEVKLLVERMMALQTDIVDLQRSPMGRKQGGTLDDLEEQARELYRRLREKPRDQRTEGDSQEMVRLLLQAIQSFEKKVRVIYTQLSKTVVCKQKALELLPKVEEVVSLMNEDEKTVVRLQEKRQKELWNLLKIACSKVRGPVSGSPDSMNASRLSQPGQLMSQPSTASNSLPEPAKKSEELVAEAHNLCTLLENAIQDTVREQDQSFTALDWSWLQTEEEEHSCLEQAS
Test: Inhibition of IKKbeta (unknown origin)
assay-endpoint: IC50 (µM)

{"smiles-input": "CC(C)(C)OC(=O)NCCOc1ccc(-c2ccnc(Nc3ccc(S(N)(=O)=O)cc3)n2)cc1", "experimental-system": "Inhibitor of nuclear factor kappa-B kinase subunit beta (Homo sapiens)", "readout-number": 0.138}
{"smiles-input": "CC(=O)Nc1ccc(Nc2nccc(-c3ccc(Oc4ccccc4N)cc3)n2)cc1", "experimental-system": "Inhibitor of nuclear factor kappa-B kinase subunit beta (Homo sapiens)", "readout-number": 4.2}
{"smiles-input": "N#Cc1ccc(-c2ccnc(Nc3ccc(S(=O)(=O)NCCO)cc3)n2)cc1", "experimental-system": "Inhibitor of nuclear factor kappa-B kinase subunit beta (Homo sapiens)", "readout-number": 0.111}

a = CN(C)c1ccc(Nc2nccc(-c3ccc(Oc4ccccc4N)cc3)n2)cc1
b = Nc1ccccc1Oc1ccc(-c2ccnc(Nc3ccc(S(N)(=O)=O)cc3)n2)cc1
### Prompt Lowest IC50? choose a or b Could you answer with the label of the item you picked?
### Response b
(b: 0.097 µM, a: 28.7 µM)

A = CS(=O)(=O)Nc1ccc(Nc2nccc(-c3ccc(Oc4ccccc4[N+](=O)[O-])cc3)n2)cc1
B = N#Cc1cccc(-c2ccnc(Nc3ccc(S(=O)(=O)NCCO)cc3)n2)c1
C = NS(=O)(=O)c1ccc(Nc2nccc(-c3ccc(Oc4ccccc4)cc3)n2)cc1
D = CN(C)CCOc1ccc(-c2ccnc(Nc3ccc(S(N)(=O)=O)cc3)n2)cc1
### Prompt Sort the molecules on IC50; start with the lowest figure. Use the labels to give the requested order.
### Response D, B, A, C
(D: 0.079 µM, B: 0.19 µM, A: 0.32 µM, C: 1.52 µM)
